Where these numbers come from: patent US11292783B2

- Test Target: κ opioid receptor (Homo sapiens)
- Construct: expressed in transfected cells
- Sequence (P41145 whole entry): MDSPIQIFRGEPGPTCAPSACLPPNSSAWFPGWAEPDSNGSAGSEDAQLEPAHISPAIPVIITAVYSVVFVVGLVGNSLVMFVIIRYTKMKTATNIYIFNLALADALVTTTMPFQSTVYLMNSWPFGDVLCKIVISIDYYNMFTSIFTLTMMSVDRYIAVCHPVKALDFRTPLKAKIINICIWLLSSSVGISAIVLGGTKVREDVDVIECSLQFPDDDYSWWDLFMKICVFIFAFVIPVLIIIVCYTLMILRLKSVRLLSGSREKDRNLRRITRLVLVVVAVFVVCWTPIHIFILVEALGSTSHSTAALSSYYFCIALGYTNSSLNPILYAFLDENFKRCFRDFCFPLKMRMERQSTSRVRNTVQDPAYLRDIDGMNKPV
- Assay: Inhibition of U69,593-stimulated [35S]GTPγS binding
- Format: biochemical
- Condition Label: cloned human κ receptor, agonist U69,593, [35S]GTPγS binding; read-out: κ, U69,593 Ke
Kindly return fulfilled if reported Kb is no lower than 20 nM; return not fulfilled if it is lower.

A selection of reference data follows.
| Smiles Code | Answer Label |
| --- | --- |
| CCC1CCN(C[C@@H](NC(=O)[C@H]2Cc3ccc(O)cc3CN2)C(C)C)CC1 | not fulfilled |
| CC1CCN(C[C@H](C(C)C)N(C)C(=O)[C@H]2Cc3ccc(O)cc3CN2)CC1 | fulfilled |
| CC1CCN(C[C@H](C(C)C)N(C)C[C@H]2Cc3ccc(O)cc3CN2)CC1 | not fulfilled |
| CC(C)[C@@H](CN1CCOCC1)NC(=O)[C@H]1Cc2ccc(O)cc2CN1 | fulfilled |

Please look at the following molecule next.
Q. Please tell me: is the molecule CC(C)[C@@H](CN1CCC(C(F)(F)F)CC1)NC(=O)[C@H]1Cc2ccc(O)cc2CN1 at or over 20 nM in terms of Kb?
A. not fulfilled

---

- Test Target: κ opioid receptor (Homo sapiens)
- Construct: expressed in transfected cells
- Assay: Inhibition of U69,593-stimulated [35S]GTPγS binding
- Format: biochemical
- Condition Label: ratio of Ke values μ/κ, fold
Quantity Kind: μ/κ (selectivity for κ relative to μ)
One number for each entry.

Solved cases below.
| Smiles Code | μ/κ (selectivity for κ relative to μ) |
| --- | --- |
| CCC1CCN(C[C@@H](NC(=O)[C@H]2Cc3ccc(O)cc3CN2)C(C)C)CC1 | 30 |
| CC1CCN(C[C@H](C(C)C)N(C)C(=O)[C@H]2Cc3ccc(O)cc3CN2)CC1 | 4.6 |

We next turn to a different compound, shown below.
Q. Bench note: what μ/κ (selectivity for κ relative to μ) did CC(C)[C@@H](CN1CCC(C)(C)CC1)NC(=O)[C@H]1Cc2ccc(O)cc2CN1 show?
A. 68
